The following are reported Growth inhibition / Cytotoxicity assays: D. discoideum GFP-ABD results, target or system D. discoideum GFP-ABD.
Number, no unit, nothing else.

// returns Growth inhibition / Cytotoxicity assays: D. discoideum GFP-ABD for c1ccc(-c2csc(Nc3nc4cc5c(cc4s3)OCO5)n2)nc1 [GSK735826A] with D. discoideum GFP-ABD; value = 0.86

Let me check: CCc1ccc(CN2CCC3(CC2)OCCc2sccc23)s1 [GSK2200160A] , system D. discoideum GFP-ABD, measured Growth inhibition / Cytotoxicity assays: D. discoideum GFP-ABD is 0.03

Field Growth inhibition / Cytotoxicity assays: D. discoideum GFP-ABD (system: D. discoideum GFP-ABD) for entry CCc1nc2ccccc2n1CC(O)COc1cc(C)ccc1Cl (stereo not shown) [GSK889423A] = 0.94

// assay D. discoideum GFP-ABD, entry O=C(CCSc1ccc(Cl)cc1)Nc1nc(-c2ccccn2)cs1 [GSK920703A] , Growth inhibition / Cytotoxicity assays: D. discoideum GFP-ABD value = 0.48

Growth inhibition / Cytotoxicity assays: D. discoideum GFP-ABD on D. discoideum GFP-ABD for Cc1ccc(SCCNC(=O)c2c(-c3ccccc3)noc2C)cc1 [GSK1863309A] is 0.97

Given the compound O=C(CCC1CCCCC1)Nc1cccc(-c2nnc(-c3ccco3)o2)c1 [GSK937213A] and test system D. discoideum GFP-ABD, the measured Growth inhibition / Cytotoxicity assays: D. discoideum GFP-ABD is 1.19

Query COc1ccc(-c2ccc(Nc3cccc(S(=O)(=O)CCNCCc4cccs4)c3)nc2)cn1 [GSK1826089A] on D. discoideum GFP-ABD; Growth inhibition / Cytotoxicity assays: D. discoideum GFP-ABD returned: 0.69

D. discoideum GFP-ABD assay, compound c1ccc(CCNc2cc(-c3ccccc3)nc3nncn23)cc1 [GSK1402290A] , recorded Growth inhibition / Cytotoxicity assays: D. discoideum GFP-ABD = 0.84

Reported D. discoideum GFP-ABD Growth inhibition / Cytotoxicity assays: D. discoideum GFP-ABD for item CCc1ccc(C2CC(C(F)(F)F)n3ncc(C(=O)NCc4cccs4)c3N2)cc1 (stereo not shown) [GSK1589671A] was 0.99

Tested on D. discoideum GFP-ABD, the item CN(C)S(=O)(=O)c1ccc(C(=O)Nc2nnc(-c3ccc(Cl)s3)o2)cc1 [GSK991960A] showed Growth inhibition / Cytotoxicity assays: D. discoideum GFP-ABD equal to 0.90

D. discoideum GFP-ABD assay, compound O=C(NC1=NCCS1)c1sc2cc(F)ccc2c1Cl [GSK1107112A] , recorded Growth inhibition / Cytotoxicity assays: D. discoideum GFP-ABD = 0.0367

D. discoideum GFP-ABD data for O=C(c1cnn(C(=O)c2ccco2)c1)c1cc(F)ccc1O [GSK1310678A] ; its Growth inhibition / Cytotoxicity assays: D. discoideum GFP-ABD: 1.12

Tested on D. discoideum GFP-ABD, the item CC(C)(C)c1ccc(-c2nnc(SCC(=O)OC3CCCCC3)o2)cc1 [GW859039X] showed Growth inhibition / Cytotoxicity assays: D. discoideum GFP-ABD equal to 0.68

# lookup: O=C(NCc1ccccc1F)N1CCN(Cc2ccc(Br)s2)CC1 [GSK1758774A] on D. discoideum GFP-ABD, Growth inhibition / Cytotoxicity assays: D. discoideum GFP-ABD = 0.85

Item COc1ccc(CC(=O)Nc2c(-c3cccs3)nc3cc(C)ccn23)cc1 [GSK1857145A] was tested on D. discoideum GFP-ABD; the reported Growth inhibition / Cytotoxicity assays: D. discoideum GFP-ABD is 0.93

Reported D. discoideum GFP-ABD Growth inhibition / Cytotoxicity assays: D. discoideum GFP-ABD for item Cc1ccc(CNC(=O)c2cnn3c2NC(c2ccc(C)cc2)CC3C(F)F)cc1 (stereo not shown) [GSK1180781A] was 1.05

Let me check: O=C(Nc1nnc(-c2ccc(Cl)s2)o1)c1ccc(Cl)s1 [GSK316438A] , system D. discoideum GFP-ABD, measured Growth inhibition / Cytotoxicity assays: D. discoideum GFP-ABD is 0.70

Reported Growth inhibition / Cytotoxicity assays: D. discoideum GFP-ABD (D. discoideum GFP-ABD) for entry COc1ccc2cc(C(=O)Nc3ccc(C4CCN(C)CC4)cc3)sc2c1 [GSK1635139A] is 0.78

D. discoideum GFP-ABD Growth inhibition / Cytotoxicity assays: D. discoideum GFP-ABD of COc1cc(Nc2ccccc2)ccc1NS(=O)(=O)c1c(C)noc1C [GSK270670A] is 0.94
